Would you kindly list MIC for each of these compounds?
System: Staphylococcus aureus
Experiment: MIC vs. aerobic bacteria, microplate broth-dilution (BHI)
Type: cell-based
Details: Staphylococcus aureus, UC746, 20 h, S. aureus UC 746; read-out: MIC
The reply should be a number in µg/mL, with the unit left off.

Suppose we examine the compound CS[C@H]1O[C@H]([C@H](NC(=O)C2CCCCN2)[C@@H](C)O)[C@H](O)[C@H](O)[C@H]1O (stereo partly shown) [U-60,493] ; what MIC value has been reported?
250

Give the measured MIC of CCc1ccnc(C(=O)N[C@@H]([C@H]2O[C@H](SC)[C@H](O)[C@@H](O)[C@H]2O)[C@H](C)Cl)c1 [U-45,652] .
1000

Look at this compound and give its reported MIC. CS[C@H]1O[C@H]([C@H](NC(=O)c2cccnc2Cl)[C@H](C)Cl)[C@H](O)[C@H](O)[C@H]1O [U-45,657]
250

* * *

Record form. Attribute: MIC. Fill in for each entry.
System: Streptococcus faecalis
Assay: MIC vs. aerobic bacteria, microplate broth-dilution (BHI)
Assay type: cell-based
Conditions: Enterococcus faecalis, UC694, 20 h, St. faecalis UC 694; read-out: MIC
Hi! Could you send only the number? It should be in µg/mL, unit omitted.

Form entry - test system: Streptococcus faecalis; read-out: MIC; compound: CS[C@H]1O[C@H]([C@H](NC(=O)C2CCCCN2CCO)[C@H](C)Cl)[C@H](O)[C@H](O)[C@H]1O (stereo partly shown)
1000

Fill in the recorded MIC for this compound, with Streptococcus faecalis as test system: CS[C@H]1O[C@H]([C@H](NC(=O)C2CCCCN2C)[C@H](C)Cl)[C@H](O)[C@H](O)[C@H]1O (stereo partly shown)
15.6

Lab note: need MIC for CS[C@H]1O[C@H]([C@H](NC(=O)C2CCCCN2)[C@@H](C)O)[C@H](O)[C@H](O)[C@H]1O (stereo partly shown) on Streptococcus faecalis, anyone have it?
1000

Notebook: pull reported MIC for Streptococcus faecalis, entry CCc1ccc(C(=O)N[C@@H]([C@H]2O[C@H](SC)[C@H](O)[C@@H](O)[C@H]2O)[C@H](C)Cl)nc1
1000

* * *

Exercise: for every item that follows, state its recorded MIC.
System: Staphylococcus aureus
Experiment: MIC vs. aerobic bacteria, microplate broth-dilution (BHI)
Format: cell-based
Settings: Staphylococcus aureus, UC746, 20 h, S. aureus UC 746; read-out: MIC

Query (molecule): CS[C@H]1O[C@H]([C@H](NC(=O)c2ccccn2)[C@@H](C)O)[C@H](O)[C@H](O)[C@H]1O [U-46,136] ; field requested: MIC
> 1000 µg/mL

Can you share its MIC? I mean this molecule: CS[C@H]1O[C@H]([C@H](NC(=O)C2CCCCN2CCO)[C@H](C)Cl)[C@H](O)[C@H](O)[C@H]1O (stereo partly shown) [U-44,469]
> 1000 µg/mL

What does the record list as MIC for CS[C@H]1O[C@H]([C@H](NC(=O)c2ccccn2)[C@H](C)O)[C@H](O)[C@H](O)[C@H]1O [U-46,135] ?
> 1000 µg/mL

What MIC value was documented for this molecule, CCc1ccnc(C(=O)N[C@@H]([C@H]2O[C@H](SC)[C@H](O)[C@@H](O)[C@H]2O)[C@@H](C)O)c1 [U-45,653] ?
> 1000 µg/mL

FYI, the data here is from patent US4310660A.
